System: Vero cells
Test Name: Cytotoxicity in Vero cells
Test Context: Chlorocebus sabaeus, read-out: Vero IC50
pIC50: −log10 of the molar value.
Quantity Kind: pIC50

INSERT INTO assay_data (compound, observed) VALUES
  ('Nc1nc(N)c2ncn([C@H]3CO[C@@H](CO)O3)c2n1', '< 4.00');

Query: Bench note: what pIC50 did CCOC(=O)[C@H](C)NP(=O)(OC[C@@H]1OC[C@H](n2cnc3c(N)nc(N)nc32)O1)Oc1ccccc1 (some centres unmarked) show?
Result: < 4.00

Attribution: patent US20120142627A1
